# Test system: P. falciparum 3D7
# ASSAY COMMENT: Antimalarial activity by SYBR Green assay
# Format: cell-based, Plasmodium falciparum
# RECORDED CONDITIONS: read-out: IC50, 3D7; 72 h; mean of three independent experiments ± SEM
QUANTITY MEASURED: IC50 (µM)

[[record]]
compound = "CC(C)c1ccc2c(c1)CC[C@H]1[C@](C)(CN)CCC[C@]21C [compound 1, dehydroabietylamine]"
target_under_test = "P. falciparum 3D7"
measure_unit = "µM"
obs_value = 1.8


A. CCC(=O)NCC1(C)CCCC2(C)c3ccc(C(C)C)cc3CCC12 (stereo not shown) [2c, N-dehydroabietylpropionamide]
B. CC(C)C1=CC2=CC[C@H]3[C@](C)(CN)CCC[C@]3(C)[C@H]2CC1
C. CC(C)c1ccc2c(c1)CCC1C(C)(CNC(=O)c3ccccc3)CCCC21C (stereo not shown) [2d, N-dehydroabietylbenzamide]
rank_up(items): orders items by reported IC50 in ascending numerical order. Rank the items, then write their labels in that order.
C, B, A
